tested on: SF-268 CNS; test: NCI-60 one-dose screen, 48 h; conditions: 10 µM unless noted
Compounds without any hit were thinned out: in the full panel of roughly 83,000, 20% have a hit. Activity calls are given as the source filed them. Rule for the calls: active = growth percent below 10; inactive = the rest.
Possible outcomes: T for active, F for inactive

>>> answer_label("CCN=Cc1c(O)c(O)c(C(C)C)c2cc(C)c(-c3c(C)cc4c(C(C)C)c(O)c(O)c(C=NCC)c4c3O)c(O)c12")
"F"
>>> answer_label("C=C(C)[C@@H]1CC[C@]2(C(=O)OC)CC[C@]3(C)[C@H](CC[C@@H]4[C@@](C)(CCc5nn[nH]n5)[C@H](C(=C)C)CC[C@]43C)[C@@H]12")
"T"
>>> answer_label("CC(C)(C)OC(=O)N1C=C/C(=C\\Cn2cc(-c3ccccc3)nn2)CC1")
"F"
>>> answer_label("COc1cc(-c2nc(SCCC(C)C)nc(Nc3ccccc3)c2C#N)cc(OC)c1OC")
"F"
>>> answer_label("O=C(O)CC1CCCCC1c1ccccc1 (centres undefined)")
"F"
>>> answer_label("COc1cc2c(=O)[nH]c3cc([N+](=O)[O-])ccc3c2cc1[N+](=O)[O-]")
"F"
>>> answer_label("O=C(NCc1ccccc1)C(Cl)Cl")
"F"
>>> answer_label("CS(=O)(=O)c1cccnn1")
"F"
>>> answer_label("CC[C@]12C=CCN3CC[C@@]4(c5ccc(OC)cc5N(C)[C@H]4[C@@](O)(C(=O)OC)[C@@H]1OC(=O)CCC(=O)N[C@H](Cc1c[nH]c4ccccc14)C(=O)OC)[C@@H]32")
"T"
>>> answer_label("O=C(C[n+]1ccn(CC(OCc2ccc(Cl)cc2Cl)c2ccc(Cl)cc2Cl)c1)c1ccc(F)cc1 (centres undefined)")
"T"
>>> answer_label("O=C(OCc1ccc2c(Cl)cc(Cl)c(O)c2n1)N1CCN(C(=O)c2cc3cc(F)ccc3[nH]2)CC1")
"F"
>>> answer_label("C=C(C)[C@@H]1CC[C@]2(COCCCN)CC[C@]3(C)[C@H](CC[C@@H]4[C@@](C)(CCCNCCCN)[C@H](C(=C)C)CC[C@]43C)[C@@H]12")
"T"
>>> answer_label("C#CC(OC(=O)N(C)C)(c1ccccc1)c1ccc(F)cc1 (centres undefined)")
"F"
>>> answer_label("COc1ccc(/C=C/C=C\\C(=O)c2ccc(-n3ccnc3)cc2)cc1")
"F"
>>> answer_label("COc1ccc(NCc2cn(-c3ccc(C(=O)O)cc3)nc2-c2ccc(C(=O)O)cc2)cc1C(F)(F)F")
"F"
>>> answer_label("CCOC(=O)COc1ccc2c(c1)O/C(=C\\c1ccc(O)cc1)C2=O")
"F"
>>> answer_label("O=C(O)c1cn(C2CC2)c2cc(N3CCN(Cc4cc(Cl)ccc4O)CC3)c(F)cc2c1=O")
"F"
>>> answer_label("Cc1ccc(N)c(O)c1")
"F"
>>> answer_label("O=C(NNc1ccc(-c2ccccc2)nn1)c1ccc(F)cc1")
"F"

* * *

test system: K-562 leukemia; assay: NCI-60 one-dose screen, 48 h (100 = growth as untreated, 0 = no growth, -100 = all killed); conditions: 10 µM unless noted
Compounds without any hit were thinned out: in the full panel of roughly 83,000, 20% have a hit.
We begin with a simple list: items and their reported growth.
Measurement Name: growth (%)

>>> test_value("Cc1cccc(C[C@H](NC(=O)Nc2ccc(Cl)cc2F)C(=O)N[C@@H]2C(=O)N3C[C@H](O)C[C@H]3C(=O)N3CCCC[C@H]3C(=O)N[C@@H](C)C(=O)N3C[C@H](C)C[C@H]3C(=O)O[C@H]2C)c1")
12.5
>>> test_value("O=C(Nc1ccc(C(=O)/C=C/c2ccc(N3CCOCC3)cc2)cc1)Nc1ccc([N+](=O)[O-])cc1")
68.6
>>> test_value("Cn1cc(-c2noc(-c3cn(C)c4ncccc34)n2)c2cc(Cl)ccc21")
87.4
>>> test_value("O=C1CC(c2ccc3c(c2)OCO3)Nc2ccccc21 (stereo unspecified)")
12.4
>>> test_value("C#CCOc1ccc(C2=NN(CC3CC3)C3N=C(Cl)c4ncn(CC5CC5)c4N23)cc1OCC#C (stereo unspecified)")
48.6
>>> test_value("COc1ccc(-c2c(C)nn3c(NCCN4CCOCC4)cc(C)nc23)cc1OC")
97.8
>>> test_value("CCOc1cccc2c(NC(C)CCCN(CC)CC)c(C)cnc12 (stereo unspecified)")
101
>>> test_value("N=C(N)c1ccc(-c2ccc(-c3ccc(-c4cccs4)s3)s2)cc1F")
15.9
>>> test_value("COc1ccc(C2NC(=O)C(C#N)c3c2sc2c(F)cccc32)cc1 (stereo unspecified)")
14.1
>>> test_value("COc1cc(Cl)cc(-c2nn(C(=O)NS(=O)(=O)c3ccccc3)cc2-c2ccncc2)c1")
86.3
>>> test_value("CCCCNC(=O)NS(=O)(=O)Cc1ccccc1")
99.7
>>> test_value("Clc1ccccc1/C=N\\Nc1ccccn1")
94.8
>>> test_value("O=C(Nc1ccc(F)cc1)c1ccccc1")
103
>>> test_value("CCN(CC)CCCOc1ccc2c(c1)O/C(=C\\c1cccc(OC)c1)C2=O")
21.5
>>> test_value("CCOc1ccc2sc(NS(=O)(=O)c3ccc(N)cc3)nc2c1")
103
>>> test_value("Cn1cc(-c2nnc(-c3cn(C)c4ncc(Br)cc34)s2)c2cc(Br)ccc21")
97.8
>>> test_value("N#CCCc1c[nH]c2ccccc12")
85.4
>>> test_value("Cc1ccc(S(=O)(=O)NCCCNc2nccc(-c3c(-c4cccc(F)c4)nc4occn34)n2)cc1")
36.7
>>> test_value("CC(C)[N+](C)(C)CC(O)COc1cccc2ccccc12 (stereo unspecified)")
106
>>> test_value("O=C(OCc1ccc2c(Cl)cc(Cl)c(O)c2n1)N1CCN(C(=O)c2cc3cc(F)ccc3[nH]2)CC1")
13.3
>>> test_value("O=C1CC(C(F)(F)F)Cc2nc3ccc(Br)cc3cc21 (stereo unspecified)")
79.1
